Settings: i.p.; minimal lethal dose
valueKind: Min Lethality

Hello, I would appreciate it if you could give Min Lethality for each entry below.
1. CCC1(N)CC(C)(C)CC(C)(C)C1
2. CC1(C)CC(CN)CC(C)(C)C1.Cl
3. CCNC1(C)CC(C)(C)CC(C)(C)C1
4. CC1(N)CCCCC1
5. CC[C@H]1CCC[C@@](C)(N)C1 (relative stereo)

1. 50 mg/kg
2. 50 mg/kg
3. 30 mg/kg
4. > 50 mg/kg
5. > 30 mg/kg

* * *

Settings: mouse, in vivo, ip
Counter-ions that a name gives are not always drawn.
valueKind: Min Lethality

Known results for compounds:
Query Min Lethality for CCCC1(C)CCCC(C)(N)C1 (stereo not shown)
> 50 mg/kg

Fill in reported Min Lethality for this entry: CC[C@H]1CC(C)(C)C[C@@](C)(N)C1 [MRZ 2/683, hydrochloride hydrate]
> 50 mg/kg

Complete the entry with Min Lethality for "CC1(C)CC(CCN)CC(C)(C)C1"
> 35 mg/kg

Could you please provide reported Min Lethality for C[C@@H]1CC(C)(C)C[C@@](C)(N)C1 (relative stereo) ? Thanks!
50 mg/kg

Query Min Lethality for "CC1(C)CC(N)CC(C)(C)C1"
> 70 mg/kg

Identify the reported Min Lethality for the following entry. CCC[C@]1(C)C[C@@H](C)C[C@@](C)(N)C1 (relative stereo)
> 50 mg/kg

Return the recorded Min Lethality value; entry: CC[C@]1(C)C[C@@H](C)C[C@@](C)(N)C1 (relative stereo)
100 mg/kg

Give Min Lethality for the following compound: CC[C@@]1(C)C[C@H](C)C[C@@](C)(N)C1 (relative stereo)
50 mg/kg

Can you give me Min Lethality for all of these, one by one?
1. CCC[C@@]1(C)C[C@H](C)C[C@@](C)(N)C1 (relative stereo)
2. CCCC1(CCC)CC(C)(C)CC(C)(N)C1 (stereo not shown)

1. > 50 mg/kg
2. > 50 mg/kg

* * *

Assay: Traction reflex test (myorelaxant action) in mice, therapeutic index versus MES
Assay type: in vivo
Details: mouse, in vivo, ip; ED50 for traction reflex impairment divided by ED50 for MES; read-out: TI Tract
Structures can show the parent of a compound that is named as a salt.
For each record, write down the corresponding selectivity ratio at 0.5 h.
Give bare numbers.

Use the examples below as a reference point.
Identify measured selectivity ratio at 0.5 h associated with CCCC1(CCC)CC(C)(C)CC(C)(N)C1 (centres unmarked)
1.1

Recall and state the measured selectivity ratio at 0.5 h for C[C@@H]1C[C@H](C)C[C@](C)(N)C1 [MRZ 2/681, hydrochloride hydrate] .
2.1

Quote selectivity ratio at 0.5 h reported for CCC1(C)CCCC(C)(N)C1 (centres unmarked) please.
1.6

Give recorded selectivity ratio at 0.5 h. CC1(C)CC(C)(C)CC(C)(N2CCCC2)C1.Cl [MRZ 2/705, hydrochloride]
3.9

Determine from records and report selectivity ratio at 0.5 h for CC[C@H]1CC(C)(C)C[C@@](C)(N)C1 [MRZ 2/683, hydrochloride hydrate]
2.7

Give the reported selectivity ratio at 0.5 h for this compound. CC12CC3CC(C)(C1)CC(N)(C3)C2 [Memantine, reference compound]
2.9

Using known records, supply selectivity ratio at 0.5 h for CC1(C)CCCC(C)(N)C1 (centres unmarked)
1.8

Check the records and state selectivity ratio at 0.5 h for CCCC1(C)CC(C)(C)CC(C)(N)C1 (centres unmarked)
1.9

Determine from records and report selectivity ratio at 0.5 h for C[C@H]1CC(C)(C)C[C@@](C)(N)C1 (relative stereo)
1.3

Fill in selectivity ratio at 0.5 h for record CC[C@H]1CC(C)(C)C[C@](C)(N)C1 [MRZ 2/682, hydrochloride]
2.7

Now for the compound whose selectivity ratio at 0.5 h we want.
Respond only with selectivity ratio at 0.5 h recorded for C[C@@H]1C[C@H](C)C[C@@](C)(N)C1 [MRZ 2/680, hydrochloride]
0.7

* * *

Test system: cortical neurones
Test: Excitotoxicity: glutamate toxicity in cultured cortical neurones (MTT)
Type: cell-based, rat
Details: Rattus norvegicus, Cortical neurone; Table 9; 100 μM glutamate; read-out: Glut Tox IC50
Counter-ions that a name gives are not always drawn.
For each record, write down the corresponding pIC50.
One number for each entry, as −log10 of the molar value.

Field: pIC50. Fill in for each record below.
1. CCC1(N)CC(C)(C)CC(C)(C)C1 [Mrz 2/600]
2. C[C@@H]1C[C@H](C)C[C@](C)(N)C1 [MRZ 2/681, hydrochloride hydrate]
3. C[C@H]1CC(C)(C)C[C@@](C)(N)C1 (relative stereo) [Mrz 2/643]

1. 5.68
2. 4.57
3. 4.92

Batch lookup, pIC50 per entry.
1. CC1(C)CC(C)(C)CC(C)(N)C1 [Mrz 2/579, 1-amino-1,3,3,5,5-pentamethylcyclohexane]
2. CCC1(C)CCCC(C)(N)C1 (stereo not shown) [Mrz 2/620]
3. C[C@@H]1C[C@H](C)C[C@@](C)(N)C1 [MRZ 2/680, hydrochloride]
4. CC1CC(C)CC(C)(N)C1 (stereo not shown) [Mrz 2/616, 1-amino-1,3,5-trimethylcyclohexane]
5. C[C@@H]1CC(C)(C)C[C@@](C)(N)C1 (relative stereo) [Mrz 2/607]
6. CC1(C)CC(CN)CC(C)(C)C1.Cl [Mrz 2/580, hydrochloride]

[5.67, 4.42, 4.45, 5.04, 5.00, 5.25]

* * *

I'd be grateful if you could share measured IC50 for these entries.
Biological target: NMDA receptor
Assay: [3H]-(+)-MK-801 binding to rat cortical membranes
Details: read-out: [3H] MK-801 IC50; Table 7; footnote calls the values Ki
Give bare numbers, in µM.

Worked set:
Read the entry C[C@H]1CCC[C@@](C)(N)C1 (relative stereo) and write its reported IC50.
69.7

Read the entry CCC1(CC)CC(C)(C)CC(C)(N)C1 (stereo not shown) and write its reported IC50.
3.3

Identify measured IC50 corresponding to CC[C@@]1(C)C[C@H](C)C[C@@](C)(N)C1 (relative stereo)
15

Input "CCNC1(C)CC(C)(C)CC(C)(C)C1" , output reported IC50.
3.3

Provide measured IC50 value, entry: CCC[C@@H]1CC(C)(C)C[C@](C)(N)C1 (relative stereo)
15.5

Provide IC50 for all items below, preserving their order.
1. CCC[C@@H]1CCC[C@@](C)(N)C1 (relative stereo)
2. CCC[C@H]1CCC[C@@](C)(N)C1 (relative stereo)

1: 70.3; 2: 35.6

* * *

Experiment: Maximal electroshock (MES)-induced convulsions in mice
Type: in vivo
Settings: Table 8; mice, i.p.; 95% confidence limits in parentheses; 30 min
For each record, write down the corresponding MES ED50.

Known MES ED50 results, listed for orientation:
Tell me MES ED50 reported for CC1(C)CCCC(C)(N)C1 (centres unmarked) [Mrz 2/621]
36.9 (22.6-60.3) mg/kg

Quickly give me recorded MES ED50 for NC12CC3CC(CC(C3)C1)C2 [Amantadine, reference compound]
184.0 (122-279) mg/kg

Query MES ED50 for C[C@]12N[C@H](Cc3ccccc31)c1ccccc12 [MK-801, reference compound]
0.16 (0.13-0.21) mg/kg

Give me MES ED50 for each of these compounds, listed below.
1. CN(C)C1(C)CC(C)(C)CC(C)(C)C1 [Mrz 2/642]
2. CCCC1(N)CC(C)(C)CC(C)(C)C1 [Mrz 2/601]

["8.04 (5.1-12.7) mg/kg", "15.6 (10.4-23.4) mg/kg"]

* * *

Assay: Rotarod test (motor coordination, ataxia) in mice, therapeutic index versus MES
Assay type: in vivo
Conditions: mouse, in vivo, ip; ED50 for rotarod failure divided by ED50 for MES; read-out: TI Rot.
Procedure: All compounds were dissolved in 0.9% saline. The MES test was performed together with tests for myorelaxant action (traction reflex) and motor coordination (rotarod). […] The presence of tonic convulsions was scored (tonic extension of hind paws with minimum angle to the body of 90°). The aim was to obtain ED50 s for all parameters scored (anticonvulsive activity and motor side effects) with use of the Litchfield Wilcoxon test for quantal dose responses. […]
valueKind: selectivity ratio at 0.5 h
One number for each entry.

Value sought for every listed molecule: selectivity ratio at 0.5 h.
1. CCC1(C)CCCC(C)(N)C1 (stereo not drawn) [Mrz 2/620]
2. CC1(C)CC(C)(C)CC(C)(N2CCCC2)C1.Cl [MRZ 2/705, hydrochloride]
3. C[C@H]1CC(C)(C)C[C@@](C)(N)C1 (relative stereo) [Mrz 2/643]

1. 1.5
2. 5.4
3. 2.4

* * *

Tested on: cortical neurones
Assay: Excitotoxicity: glutamate toxicity in cultured cortical neurones (MTT)
Type: cell-based, rat
Settings: Rattus norvegicus, Cortical neurone; Table 9; 100 μM glutamate; read-out: Glut Tox IC50
pIC50: −log10 of the molar value.
Threshold rule: pIC50 greater than or equal to 5 is yes; below that, no.

Please review the entries below; each comes with its answer.
Decide: pIC50 of CC[C@@H]1CC(C)(C)C[C@@](C)(N)C1 (relative stereo) >= 5?
yes

Does pIC50 meet or surpass 5 for "CCNC1(C)CC(C)(C)CC(C)(C)C1" ?
yes

Please indicate if the recorded pIC50 for CCCC1(CCC)CC(C)(C)CC(C)(N)C1 (centres unmarked) meets or exceeds 5.
no

Consider the record given below.
Is reported pIC50 greater than or equal to 5 here: CC[C@@]1(C)C[C@H](C)C[C@@](C)(N)C1 (relative stereo)
no
